OD450: recorded values
# experimental_target: T1, human TIM-3 extracellular domain protein with hFc tag (hTIM-3-hFc) (human, UniProt Q8TDQ0 22-200)
# T1 construct: not shown: human IgG Fc fragment (hFc) of the pCpC vector
# T1 sequence: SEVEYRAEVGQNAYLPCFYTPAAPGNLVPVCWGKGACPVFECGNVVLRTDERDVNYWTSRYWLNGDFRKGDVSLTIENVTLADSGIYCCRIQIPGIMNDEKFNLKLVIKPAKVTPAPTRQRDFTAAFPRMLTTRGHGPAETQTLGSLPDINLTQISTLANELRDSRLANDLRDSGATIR
# assay_summary: ELISA, coated human TIM-3 ECD protein, 0.0667 nM antibody
Give the figure only, with no unit attached.

• 34B6D8 fully human TIM-3 antibody (human IgG4, kappa) (antibody, V domains shown) VH: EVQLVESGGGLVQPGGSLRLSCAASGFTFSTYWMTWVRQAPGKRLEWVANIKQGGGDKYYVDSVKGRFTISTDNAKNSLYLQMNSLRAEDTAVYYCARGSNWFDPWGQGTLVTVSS VL: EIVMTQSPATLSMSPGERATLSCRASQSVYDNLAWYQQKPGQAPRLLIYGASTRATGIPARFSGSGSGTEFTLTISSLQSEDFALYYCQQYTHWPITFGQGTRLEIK = 1.58
• 134H3G6 fully human TIM-3 antibody (human IgG4, kappa) (antibody, V domains shown) VH: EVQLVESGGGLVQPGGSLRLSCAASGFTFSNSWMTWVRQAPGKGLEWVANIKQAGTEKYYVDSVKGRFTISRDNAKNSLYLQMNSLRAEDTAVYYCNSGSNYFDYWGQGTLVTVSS VL: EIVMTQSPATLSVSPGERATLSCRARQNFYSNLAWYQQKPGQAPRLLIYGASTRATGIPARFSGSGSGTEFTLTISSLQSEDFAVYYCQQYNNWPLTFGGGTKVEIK = 1.28
• 39E5H1 fully human TIM-3 antibody (human IgG4, kappa) (antibody, V domains shown) VH: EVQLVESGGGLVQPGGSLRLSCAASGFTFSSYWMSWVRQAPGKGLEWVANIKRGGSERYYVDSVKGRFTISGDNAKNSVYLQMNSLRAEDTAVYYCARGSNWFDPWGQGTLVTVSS VL: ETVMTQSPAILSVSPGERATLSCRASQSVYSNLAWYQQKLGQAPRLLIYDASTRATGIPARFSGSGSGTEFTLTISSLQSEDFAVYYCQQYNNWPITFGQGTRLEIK = 1.33

Find the recorded OD450 belonging to 7A4F10 fully human TIM-3 antibody (human IgG4, kappa) (antibody, V domains shown) VH: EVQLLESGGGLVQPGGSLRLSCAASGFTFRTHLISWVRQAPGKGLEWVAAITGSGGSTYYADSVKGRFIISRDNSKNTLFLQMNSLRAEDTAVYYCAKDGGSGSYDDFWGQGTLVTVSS VL: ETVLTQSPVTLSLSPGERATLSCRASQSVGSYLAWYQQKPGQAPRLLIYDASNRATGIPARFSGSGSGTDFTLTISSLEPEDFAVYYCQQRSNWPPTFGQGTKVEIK and report it.
1.69

What value of OD450 has been recorded for this entry: 18D2H2 fully human TIM-3 antibody (human IgG4, kappa) (antibody, V domains shown) VH: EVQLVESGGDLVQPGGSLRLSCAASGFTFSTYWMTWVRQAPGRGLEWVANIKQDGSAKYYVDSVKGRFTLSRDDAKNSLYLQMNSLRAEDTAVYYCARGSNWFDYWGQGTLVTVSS VL: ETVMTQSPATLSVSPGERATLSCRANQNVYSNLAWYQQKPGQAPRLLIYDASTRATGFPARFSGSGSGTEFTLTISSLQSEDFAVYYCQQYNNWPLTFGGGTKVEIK
1.57

What measured OD450 goes with 57F4E5 fully human TIM-3 antibody (human IgG4, kappa) (antibody, V domains shown) VH: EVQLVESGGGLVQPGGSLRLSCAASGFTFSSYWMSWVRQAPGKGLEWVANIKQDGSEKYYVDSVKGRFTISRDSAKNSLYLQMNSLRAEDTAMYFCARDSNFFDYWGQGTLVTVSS VL: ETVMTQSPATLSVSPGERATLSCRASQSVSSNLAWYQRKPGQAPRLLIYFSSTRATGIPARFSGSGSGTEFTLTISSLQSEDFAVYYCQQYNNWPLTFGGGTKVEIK ?
1.22

Origin of measurements: patent US20220033501A1
